Molecular target: beta-catenin-B-cell lymphoma 9 protein complex (Homo sapiens, UniProt P35222+O00512)
Sequence (O00512 whole entry, stated change not applied): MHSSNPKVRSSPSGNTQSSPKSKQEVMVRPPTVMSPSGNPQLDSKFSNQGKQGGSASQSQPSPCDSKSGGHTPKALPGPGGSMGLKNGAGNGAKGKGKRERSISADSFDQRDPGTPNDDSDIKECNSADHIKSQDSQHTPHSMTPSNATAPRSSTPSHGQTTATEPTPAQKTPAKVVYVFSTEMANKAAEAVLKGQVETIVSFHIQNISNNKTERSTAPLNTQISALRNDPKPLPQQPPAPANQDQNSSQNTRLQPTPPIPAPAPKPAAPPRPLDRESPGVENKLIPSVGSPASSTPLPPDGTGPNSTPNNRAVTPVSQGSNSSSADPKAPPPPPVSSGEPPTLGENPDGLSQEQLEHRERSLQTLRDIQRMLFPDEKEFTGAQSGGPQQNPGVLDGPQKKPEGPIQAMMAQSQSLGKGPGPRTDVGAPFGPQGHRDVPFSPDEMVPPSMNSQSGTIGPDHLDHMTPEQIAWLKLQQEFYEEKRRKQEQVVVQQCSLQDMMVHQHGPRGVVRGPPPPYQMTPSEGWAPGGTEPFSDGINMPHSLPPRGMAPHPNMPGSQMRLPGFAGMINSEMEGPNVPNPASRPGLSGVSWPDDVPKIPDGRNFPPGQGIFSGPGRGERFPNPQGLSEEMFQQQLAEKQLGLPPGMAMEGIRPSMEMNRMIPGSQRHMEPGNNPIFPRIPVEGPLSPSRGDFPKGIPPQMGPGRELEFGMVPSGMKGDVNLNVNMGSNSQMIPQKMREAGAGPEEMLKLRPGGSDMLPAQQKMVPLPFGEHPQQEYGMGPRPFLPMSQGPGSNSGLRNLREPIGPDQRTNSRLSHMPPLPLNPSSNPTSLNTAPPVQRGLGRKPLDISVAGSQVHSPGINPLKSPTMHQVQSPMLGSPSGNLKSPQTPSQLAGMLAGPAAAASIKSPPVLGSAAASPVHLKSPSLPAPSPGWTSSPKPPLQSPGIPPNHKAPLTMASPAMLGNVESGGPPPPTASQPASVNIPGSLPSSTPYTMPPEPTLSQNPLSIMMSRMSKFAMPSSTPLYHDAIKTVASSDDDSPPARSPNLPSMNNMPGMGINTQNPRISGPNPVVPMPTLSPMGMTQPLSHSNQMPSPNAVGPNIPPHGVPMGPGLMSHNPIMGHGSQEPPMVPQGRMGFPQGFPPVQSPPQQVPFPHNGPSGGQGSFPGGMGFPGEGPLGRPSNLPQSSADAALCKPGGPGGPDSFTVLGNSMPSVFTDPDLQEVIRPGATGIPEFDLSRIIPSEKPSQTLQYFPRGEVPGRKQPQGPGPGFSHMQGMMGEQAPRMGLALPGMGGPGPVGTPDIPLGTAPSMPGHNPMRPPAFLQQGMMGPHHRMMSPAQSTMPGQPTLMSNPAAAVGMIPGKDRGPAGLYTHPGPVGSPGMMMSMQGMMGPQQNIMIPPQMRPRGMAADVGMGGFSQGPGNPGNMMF
Sequence (P35222 2-781 limits assumed, stated change not applied): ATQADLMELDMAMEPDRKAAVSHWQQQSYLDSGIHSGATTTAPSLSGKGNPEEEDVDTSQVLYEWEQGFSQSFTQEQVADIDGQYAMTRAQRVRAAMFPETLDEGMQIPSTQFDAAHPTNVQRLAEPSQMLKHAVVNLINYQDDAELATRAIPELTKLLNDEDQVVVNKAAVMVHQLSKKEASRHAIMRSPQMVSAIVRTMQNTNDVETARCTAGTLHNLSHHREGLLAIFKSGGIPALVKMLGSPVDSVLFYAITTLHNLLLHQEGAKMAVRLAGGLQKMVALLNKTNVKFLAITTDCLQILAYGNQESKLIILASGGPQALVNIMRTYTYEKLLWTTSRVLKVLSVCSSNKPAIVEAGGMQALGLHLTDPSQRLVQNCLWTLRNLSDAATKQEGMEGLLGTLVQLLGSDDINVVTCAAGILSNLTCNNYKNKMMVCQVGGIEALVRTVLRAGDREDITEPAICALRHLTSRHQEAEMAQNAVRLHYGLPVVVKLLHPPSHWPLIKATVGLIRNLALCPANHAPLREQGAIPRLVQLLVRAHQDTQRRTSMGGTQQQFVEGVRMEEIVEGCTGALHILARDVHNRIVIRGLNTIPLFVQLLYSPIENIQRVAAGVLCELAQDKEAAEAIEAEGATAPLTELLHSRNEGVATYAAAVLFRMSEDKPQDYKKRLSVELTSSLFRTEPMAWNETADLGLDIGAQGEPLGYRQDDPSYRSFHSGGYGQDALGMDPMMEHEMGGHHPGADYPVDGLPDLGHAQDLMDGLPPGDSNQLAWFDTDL
Experiment: Alphascreen Assay: Alphascreen Assays to Determine the Apparent Kd Values for Wild-Type and Mutant β-Catenin/BCL9 InteractionsThe experimental detail using AlphaScreen to determine the apparent Kd values for β-catenin/BCL9 and β-catenine/E-cadherin PPIs has been described previously (Zhang et al. (2015) Anal. Biochem. 469: 43-53). The concentrations of mutant β-catenin proteins used in the assays were the same as that of wild-type β-catenin.
Quantity Kind: pKi
The value called pKi is obtained by taking minus log10 of the concentration in mol/L.

What measured pKi goes with `CC(C)c1cc2c(c(O)c1O)[C@@]1(C(=O)O)CCCC(C)(C)[C@@H]1CC2` ?
5.28

Values compiled from ChEMBL document CHEMBL5729519.
